Target: Recombinant STAT3 protein (STAT3 (G127-I722)) (Homo sapiens, UniProt P40763)
Construct: Recombinant STAT3 protein (STAT3 (G127-I722))
Sequence (P40763 127-722): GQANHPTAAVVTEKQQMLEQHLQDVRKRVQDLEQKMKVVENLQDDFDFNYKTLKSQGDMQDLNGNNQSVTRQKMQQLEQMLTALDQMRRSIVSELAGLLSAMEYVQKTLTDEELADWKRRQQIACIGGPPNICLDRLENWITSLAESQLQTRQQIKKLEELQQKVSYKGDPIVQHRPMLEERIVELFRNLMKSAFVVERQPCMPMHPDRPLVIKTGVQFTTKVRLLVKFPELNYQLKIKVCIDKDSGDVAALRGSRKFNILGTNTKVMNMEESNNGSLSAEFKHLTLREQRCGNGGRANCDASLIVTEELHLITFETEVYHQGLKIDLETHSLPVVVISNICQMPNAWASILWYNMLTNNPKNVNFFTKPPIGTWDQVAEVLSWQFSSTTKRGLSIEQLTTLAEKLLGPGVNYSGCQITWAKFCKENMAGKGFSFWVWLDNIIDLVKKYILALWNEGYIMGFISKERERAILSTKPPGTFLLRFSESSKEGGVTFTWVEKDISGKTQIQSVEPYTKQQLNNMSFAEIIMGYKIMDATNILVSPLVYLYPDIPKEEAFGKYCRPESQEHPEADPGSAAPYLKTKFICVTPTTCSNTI
Experiment: STAT3 Fluorescence Polarization (FP) Assay
Type: binding
Settings: STAT3 (G127-I722) 25 nM, probe 5-FAM-GpYLPQTV-NH2 2 nM, 45-minute incubation; read-out: STAT3 (FP assay IC50 class)
# maps each entry to its IC50
quantity: IC50

compound: O=C(N[C@H]1CCC[C@H]2CC[C@@H](C(=O)N3CC(c4cncc(F)c4)C3)N2C1=O)c1cc2cc(C(F)P(=O)(O)O)ccc2s1 (stereo partly drawn)
obs_value: 100 to 1000 nM

compound: N#CC1CN(C(=O)[C@@H]2CC[C@@H]3CCC[C@H](NC(=O)c4cc5cc(C(F)(F)P(=O)(O)O)ccc5s4)C(=O)N32)C1
obs_value: 100 to 1000 nM

compound: O=C(N[C@H]1CCCC[C@H]2CC[C@@H](C(=O)N3CC(c4ccccc4)CC34CC4)N2C1=O)c1ccc2ccc(CP(=O)(O)O)nc2c1 (stereo partly drawn)
obs_value: 1000 to 10000 nM

compound: O=C(N[C@H]1CCC[C@H]2CC[C@@H](C(=O)N3CCC(c4ccncn4)CC3)N2C1=O)c1cc2cc(C(F)P(=O)(O)O)ccc2s1 (stereo partly drawn)
obs_value: 100 to 1000 nM

compound: CCC[C@H]1CC[C@H](NC(=O)c2cc3cc(C(F)P(=O)(O)O)ccc3s2)C(=O)N2[C@H](CC[C@H]2C(=O)N2CC(c3cnccc3OC)C2)C1 (stereo partly drawn)
obs_value: < 100 nM

compound: O=C(N[C@H]1CCC[C@H]2CC[C@@H](C(=O)N3CC(c4cnccc4N4CC(C(F)(F)F)C4)C3)N2C1=O)c1cc2cc(CP(=O)(O)O)ccc2s1
obs_value: < 100 nM

----------
Target: Recombinant STAT6 protein (STAT6 (W123-T658)) (Homo sapiens)
Construct: Recombinant STAT6 protein (STAT6 (W123-T658))
Sequence (P42226 123-658): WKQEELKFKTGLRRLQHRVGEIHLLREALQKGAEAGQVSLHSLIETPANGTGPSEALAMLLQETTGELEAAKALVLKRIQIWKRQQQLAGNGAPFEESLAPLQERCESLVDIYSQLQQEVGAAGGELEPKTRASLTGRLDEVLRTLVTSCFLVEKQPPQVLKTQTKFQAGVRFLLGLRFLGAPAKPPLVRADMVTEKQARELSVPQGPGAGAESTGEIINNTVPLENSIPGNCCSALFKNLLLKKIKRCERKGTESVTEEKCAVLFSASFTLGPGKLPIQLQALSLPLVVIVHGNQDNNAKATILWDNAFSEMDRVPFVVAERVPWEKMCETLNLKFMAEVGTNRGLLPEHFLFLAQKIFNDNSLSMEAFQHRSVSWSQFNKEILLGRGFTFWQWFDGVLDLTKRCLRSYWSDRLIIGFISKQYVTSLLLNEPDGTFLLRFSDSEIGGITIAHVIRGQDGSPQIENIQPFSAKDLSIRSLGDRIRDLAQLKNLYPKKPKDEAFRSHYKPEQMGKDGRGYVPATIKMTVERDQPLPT
Experiment: STAT6 Fluorescence Polarization (FP) Assay
Type: binding
Settings: STAT6 250 nM, probe 5-FAM-Ap[…]-NH2 2 nM, 45-minute incubation; read-out: STAT6 (FP assay IC50)
Protocol: STAT6 Fluorescence Polarization (FP) Assay An FP assay was developed to determine IC50 values for test substances. […] Reaction components were mixed, and FP was measured after 45-minute incubation at room temperature using a Tecan Spark multimode plate reader. FP signal (mP) was plotted against the log concentration of the test substances and IC50 values were calculated by nonlinear regression analysis using GraphPad Prism software. […]
# maps each entry to its IC50

compound: O=C(N[C@H]1CCC[C@H]2CC[C@@H](C(=O)Nc3ccc(-c4ccccc4)cc3)N2C1=O)c1ccc2ccc(C(F)(F)P(=O)(O)O)cc2c1
IC50: 3 to 30 µM

compound: N#C[C@@H]1CN(C(=O)[C@@H]2CC[C@@H]3CCCC[C@H](NC(=O)c4cc5cc(C(F)(F)P(=O)(O)O)ccc5s4)C(=O)N32)C[C@H]1c1cc[nH]c(=O)c1 (relative stereo)
IC50: ≤ 0.3 µM

compound: Cn1ccc(C2CN(C(=O)[C@@H]3CC[C@@H]4CCCC[C@H](NC(=O)c5cc6cc(C(F)(F)P(=O)(O)O)ccc6s5)C(=O)N43)C2)n1
IC50: 0.3 to 3 µM

compound: N#C[C@H]1CN(C(=O)[C@@H]2CC[C@@H]3CCCC[C@H](NC(=O)c4cc5cc(C(F)(F)P(=O)(O)O)ccc5s4)C(=O)N32)C[C@@H]1c1ccc2cn[nH]c2c1 (racemic)
IC50: 0.3 to 3 µM

compound: O=C(N[C@H]1CC[C@H](O)C[C@H]2CC[C@@H](C(=O)N3CC(C(=O)N4CCOCC4)C3)N2C1=O)c1cc2cc(C(F)(F)P(=O)(O)O)ccc2s1
IC50: 3 to 30 µM

compound: CC1CCC[C@H](NC(=O)c2cc3cc(C(F)(F)P(=O)(O)O)ccc3s2)C(=O)N2[C@@H]1CC[C@H]2C(=O)N1CC(c2cccnc2)C1 (stereo partly shown)
IC50: 3 to 30 µM

compound: O=C(N[C@H]1CC[C@@H](OCc2ccccc2)C[C@H]2CC[C@@H](C(=O)N3CC(C(=O)N4CCOCC4)C3)N2C1=O)c1cc2cc(C(F)(F)P(=O)(O)O)ccc2s1
IC50: 3 to 30 µM

compound: C[C@]1(NC(=O)c2cc3cc(C(F)(F)P(=O)(O)O)ccc3s2)CCCC[C@H]2CC[C@@H](C(=O)N3C[C@H](c4ccccc4)[C@@H](C#N)C3)N2C1=O (relative stereo)
IC50: 0.3 to 3 µM

compound: CN(C(=O)[C@@H]1CC[C@@H]2CCC[C@H](NC(=O)c3cc4cc(C(F)(F)P(=O)(O)O)ccc4s3)C(=O)N21)c1ccccc1
IC50: 0.3 to 3 µM

compound: N#C[C@@H]1CN(C(=O)[C@@H]2CC[C@@H]3C[C@@H](N4CCC4)CC[C@H](NC(=O)c4cc5cc(C(F)(F)P(=O)(O)O)ccc5s4)C(=O)N32)C[C@H]1c1ccccc1 (relative stereo)
IC50: ≤ 0.3 µM
